Assay: qHTS screen for small molecules that inhibit ELG1-dependent DNA repair in human embryonic kidney (HEK293T) cells expressing luciferase-tagged ELG1; further: nearly all actives have a fitted effect of over 55% in size
Settings: HEK293T ELG1-luciferase reporter, luminescence, 16 h, DNA damage induced by 5-fluorouridine; series mostly up to 46.1 µM
The campaign covered roughly 330,000 compounds. About 7,700 (2.3%) were called active. Not shown: some 26% with an inconclusive outcome. This excerpt belongs to a sample that is enriched for actives.
Result type: outcome

Cc1ccc(CN2CC(C(=O)N3CCN(S(=O)(=O)c4ccccc4)CC3)CC2=O)cc1 (stereo not drawn) : inactive
CCN(C(=O)COC(=O)Cc1c(F)cccc1Cl)c1c(N)n(Cc2ccccc2)c(=O)[nH]c1=O : inactive
Cc1nn(-c2ccccc2)c(C)c1NC(=O)CCl : inactive

* * *

Assay: qHTS screen for small molecules that inhibit ELG1-dependent DNA repair in human embryonic kidney (HEK293T) cells expressing luciferase-tagged ELG1; further: nearly all actives have a fitted effect of over 55% in size
Conditions: HEK293T ELG1-luciferase reporter, luminescence, 16 h, DNA damage induced by 5-fluorouridine; series mostly up to 46.1 µM
The campaign covered roughly 330,000 compounds. About 7,700 (2.3%) were called active. Roughly 26% stayed inconclusive and do not appear here. The call rests on the fitted dose curve; in most records, active means well fitted inhibition curve with a large enough effect; inconclusive means small, poorly fitted or top-dose-only effect, or effect the other way; inactive means flat fitted curve, though single readings scatter. The full list was thinned out, with actives kept by preference.
// allowed return values: active, inactive

Outcome logged for Cc1nc(SCC(=O)NC2CCCCC2C)c(C#N)c(C)c1C (stereo not given) in this assay: inactive

Same for O=C(c1cccs1)N(Cc1cc2ccccc2[nH]c1=O)CC1CCCO1 (stereo not given) inactive

COc1ccc(NC(=O)C2=NNC(=O)CC2)cc1S(=O)(=O)N1CCCCC1 , same question. inactive

Entry to check: Cc1cc(F)ccc1NC(=S)NCCc1ccccc1 inactive

Repeat for the following molecule: Cc1ccc(NC(=O)CCC(=O)N2CCC(c3ccccc3)=N2)cc1S(=O)(=O)N1CCCCC1 inactive

Now consider Cc1c(C(=O)NCCN(C)C)oc2ccc(S(=O)(=O)N3CCCC3)cc12 . inactive

Param item: O=C(Nc1ccc(-c2csc(Nc3cccc(C(F)(F)F)c3)n2)cc1)c1cccc(C(F)(F)F)c1 active

// query: Nn1c(SCC(=O)NC2CCCc3ccccc32)nnc1C1CC1 (stereo not given) inactive

Subsequent entry: CCOC(=O)c1c(-c2ccc(-c3ccccc3)cc2)csc1NC(=O)CCC(=O)O inactive

Do the same for CCCCn1c(N)c(N(CC(C)C)C(=O)c2ccc(-n3c(C)ccc3C)cc2)c(=O)[nH]c1=O please inactive

* * *

Test: qHTS screen for small molecules that inhibit ELG1-dependent DNA repair in human embryonic kidney (HEK293T) cells expressing luciferase-tagged ELG1; further: nearly all actives have a fitted effect of over 55% in size
Conditions: HEK293T ELG1-luciferase reporter, luminescence, 16 h, DNA damage induced by 5-fluorouridine; series mostly up to 46.1 µM
Hit rate of the full screen: of about 330,000 compounds, about 7,700 (2.3%) were called active. Inconclusive results (about 26%) are left out. Calls follow the shape of the dose curve; as a rule, active = well fitted inhibition curve with a large enough effect; inconclusive = small, poorly fitted or top-dose-only effect, or effect the other way; inactive = flat fitted curve, though single readings scatter. Many of the other results were omitted from the sample, so actives are more common in it than they were.
Permitted responses: active, inactive

Check out these entries, answers already filled in.
Cc1[nH]c2ccccc2c1CCN(Cc1cccs1)C(=S)NC(C)(C)C : inactive
CC1=C[C@H]2Cc3cc(C)cc(C)c3S(=O)(=O)[C@@H]2C=C1 : active
O=C(Nc1nnc(-c2ccccc2)o1)c1cc(-c2cccs2)nc2ccccc12 : inactive

For CC(C)[C@H](NC(=O)N1CCn2c1nc1ccccc12)C(=O)NCCc1ccccc1 , what call appears in the results of this test? inactive

Further, for COc1ccc(CC(=O)Nc2nc(-c3ccc(F)c(F)c3)cs2)cc1OC ? inactive

What about NS(=O)(=O)c1cccc(NC(=O)CSc2nc3ccccc3n2-c2ccccc2)c1 ? active

Follow-up entry: CCCc1cc(=O)[nH]c(SCC(=O)Nc2ccc(C(=O)Nc3ccccc3OC)cc2)n1 inactive

Same for CCOc1ccc(NS(=O)(=O)c2ccc(Cl)c(C(=O)N(C)Cc3cccnc3)c2)cc1 inactive

* * *

Test: qHTS screen for small molecules that inhibit ELG1-dependent DNA repair in human embryonic kidney (HEK293T) cells expressing luciferase-tagged ELG1; further: nearly all actives have a fitted effect of over 55% in size; further: potency means the concentration at half of the fitted maximal effect
Details: HEK293T ELG1-luciferase reporter, luminescence, 16 h, DNA damage induced by 5-fluorouridine; series mostly up to 46.1 µM
Out of some 330,000 compounds screened, about 7,700 (2.3%) were called active. Roughly 26% stayed inconclusive and do not appear here. The list comes from a sample in which actives are over-represented; it also holds close analogues and randomly drawn compounds.
Result type: Potency

Cc1ccc(S(=O)(=O)Nc2nc3ccccc3s2)cc1[N+](=O)[O-] : inactive
CCn1nc(C)c(NC(=O)/C=C/c2ccc(OC)c(COc3ccc(Br)cc3)c2)c1C : 6.51 µM (active)
O=[N+]([O-])c1cc(Br)c(O)c(/C=N/Nc2nc3ccccc3s2)c1 : 4.11 µM (active)
O=C(NCc1ccccc1CN1CCCC1)C1CCN(S(=O)(=O)c2ccc(Cl)cc2)CC1 : inactive

* * *

Assay: qHTS screen for small molecules that inhibit ELG1-dependent DNA repair in human embryonic kidney (HEK293T) cells expressing luciferase-tagged ELG1; further: nearly all actives have a fitted effect of over 55% in size
Conditions: HEK293T ELG1-luciferase reporter, luminescence, 16 h, DNA damage induced by 5-fluorouridine; series mostly up to 46.1 µM
The whole screen tested about 330,000 compounds, of which about 7,700 (2.3%) were called active. Roughly 26% stayed inconclusive and do not appear here. Calls follow the shape of the dose curve; as a rule, active = well fitted inhibition curve with a large enough effect; inconclusive = small, poorly fitted or top-dose-only effect, or effect the other way; inactive = flat fitted curve, though single readings scatter. Only a selection was taken, and actives are over-represented in it overall.
Bench note: report the call from label 1 = active, label 0 = inactive

O=C(Nc1nnc(-c2ccco2)o1)c1ccc(S(=O)(=O)N2CCOCC2)cc1 : label 0
Cc1ccccc1NC(=O)NC1(C(=O)N2CCCC2)CCCCC1 : label 0
CCNC(=O)NC(=O)C(C)OC(=O)c1cc(S(=O)(=O)N2CCCCCC2)ccc1OC (stereo not drawn) : label 1
O=C(c1cc2ccccc2o1)N1CCN(S(=O)(=O)c2ccc(Cl)s2)CC1 : label 1
COc1ccc(S(=O)(=O)NCC(=O)NC2CC2)cc1OC : label 0
COc1ccccc1NC(=O)C1CCCN(c2cc(C)nc3ncnn23)C1 (stereo not drawn) : label 0
Cc1ccccc1NC(=O)Nc1ccccc1N1CCCCC1 : label 1
CS(=O)(=O)N1CCN(C(=O)c2cc3ccccc3oc2=O)CC1 : label 0

# fetch the recorded call for COc1ccc(CC(=O)Nc2cc(S(=O)(=O)N3CCCCC3)ccc2N2CCN(C)CC2)cc1 here label 0

Queued: CC1CCCCN1S(=O)(=O)CCNC(=O)c1ccccc1 (stereo not drawn) label 0

Another compound: O=C(Nc1cccc(Cl)c1)C1CCCN(c2cnccn2)C1 (stereo not drawn) label 0

Also CCN(CC)S(=O)(=O)c1ccc(CNC(=O)CN2C(=O)NC3(CCc4ccccc43)C2=O)cc1 (stereo not drawn) ? label 0

Follow-up item: CCNC(=O)NC(=O)C(C)OC(=O)C1CCN(S(=O)(=O)c2ccccc2F)CC1 (stereo not drawn) label 0

* * *

Experiment: qHTS screen for small molecules that inhibit ELG1-dependent DNA repair in human embryonic kidney (HEK293T) cells expressing luciferase-tagged ELG1; further: nearly all actives have a fitted effect of over 55% in size
Settings: HEK293T ELG1-luciferase reporter, luminescence, 16 h, DNA damage induced by 5-fluorouridine; series mostly up to 46.1 µM
The whole screen tested about 330,000 compounds, of which about 7,700 (2.3%) were called active. Inconclusive results (about 26%) are left out. Calls come from the whole dose curve; as a rule, active = well fitted inhibition curve with a large enough effect; inconclusive = small, poorly fitted or top-dose-only effect, or effect the other way; inactive = flat fitted curve, though single readings scatter. The sample as a whole holds a higher share of actives than the screen did.
Can you answer with just one of these options? active, inactive

Hey, what did the test say about NC(=O)c1cc(S(=O)(=O)NCCCc2ccco2)cs1 ? inactive

Same read-out for CS(=O)(=O)c1ccc2nc(NC(=O)c3ccc(N4CCCC4=O)cc3)sc2c1 ? inactive

# repeat for CC1CCN(C(=O)c2cccc(S(=O)(=O)N3CCCc4ccccc43)c2)CC1 inactive

Another molecule to look at: Cc1ccccc1NC(=O)CSc1nc2ccc(Nc3nc(N4CCOCC4)nc(N4CCOCC4)n3)cc2s1 active

Consider next the molecule COc1cc(CNCc2ccc3c(c2)OCO3)c([N+](=O)[O-])cc1OC in the same way. inactive

What do we get for COC(=O)[C@]1(Cc2ccccc2)N[C@H](CN(C)S(=O)(=O)c2ccc(F)cc2)[C@@H]2C(=O)N(Cc3ccccc3)C(=O)[C@@H]21 ? inactive

And the next one, Cc1cc(Nc2ccc(Cl)cc2)nc(N2CCOCC2)n1 ? inactive

And the next one, CCC(=O)N1CCCc2ccccc21 ? inactive

Next up: CC(=O)Nc1ccc(-c2csc(NC(=O)Nc3ccccc3)n2)cc1 active

Entry CCn1c(=O)c2ccccc2n(CC(=O)N2CCCc3ccccc32)c1=O please inactive

* * *

Assay: qHTS screen for small molecules that inhibit ELG1-dependent DNA repair in human embryonic kidney (HEK293T) cells expressing luciferase-tagged ELG1; further: nearly all actives have a fitted effect of over 55% in size
Conditions: HEK293T ELG1-luciferase reporter, luminescence, 16 h, DNA damage induced by 5-fluorouridine; series mostly up to 46.1 µM
The campaign covered roughly 330,000 compounds. About 7,700 (2.3%) were called active. Another 26% or so got no clear call; they are omitted. The call rests on the fitted dose curve; in most records, active means well fitted inhibition curve with a large enough effect; inconclusive means small, poorly fitted or top-dose-only effect, or effect the other way; inactive means flat fitted curve, though single readings scatter. The sample as a whole holds a higher share of actives than the screen did.
// classify into active, inactive

Lab log entry: Nc1ncnc2c1ncn2[C@@H]1O[C@H](CNCc2cccn2-c2nccs2)[C@@H](O)[C@H]1O — outcome as called in the assay? inactive

Same thing, different compound: COc1ccccc1N1CCN(C(=O)c2ccc(NC3=NC4CS(=O)(=O)CC4S3)cc2)CC1 (stereo unspecified) inactive

What about this compound? COC(=O)c1cccc(C(=O)N2CCC(CCC(=O)NCc3ccc(F)cc3)CC2)c1 inactive

Where these numbers come from: PubChem BioAssay AID504467
